# Assay summary: Cytotoxicity against mouse RAW264.7 cells assessed as reduction in cell viability incubated for 2 days by MTT assay
# Type: cell-based
Measured property: IC20 at 48 h (µg/mL)
Kindly answer with a numeric value in µg/mL, unit omitted.

Incoming: # get_value(readout='IC20 at 48 h', item= `C=C(CC[C@@H](C)[C@H]1CC[C@@]2(C)[C@@H]3CC[C@H]4C(C)(C)[C@@H](O)CC[C@]4(C)C3=CC[C@]12C)C(C)C` )
Outgoing: 2.7

---

# Assay summary: Cytotoxicity against mouse RAW264.7 cells assessed as cell viability at 2.7 ug/ml incubated for 2 days by MTT assay relative to control
# Assay type: cell-based
# Details: read-out: Activity
Measured property: viability at 48 h, 2.7 ug/ml (%)
// units = %; emit number, no label

Incoming: // lookup viability at 48 h, 2.7 ug/ml for `C=C(CC[C@@H](C)[C@H]1CC[C@@]2(C)[C@@H]3CC[C@H]4C(C)(C)[C@@H](O)CC[C@]4(C)C3=CC[C@]12C)C(C)C`
Outgoing: 80
